src = PubChem BioAssay AID624417

- tgt: Glucagon-like peptide 1 receptor (Homo sapiens) (UniProt P43220)
- Sequence (P43220 whole entry, looked up): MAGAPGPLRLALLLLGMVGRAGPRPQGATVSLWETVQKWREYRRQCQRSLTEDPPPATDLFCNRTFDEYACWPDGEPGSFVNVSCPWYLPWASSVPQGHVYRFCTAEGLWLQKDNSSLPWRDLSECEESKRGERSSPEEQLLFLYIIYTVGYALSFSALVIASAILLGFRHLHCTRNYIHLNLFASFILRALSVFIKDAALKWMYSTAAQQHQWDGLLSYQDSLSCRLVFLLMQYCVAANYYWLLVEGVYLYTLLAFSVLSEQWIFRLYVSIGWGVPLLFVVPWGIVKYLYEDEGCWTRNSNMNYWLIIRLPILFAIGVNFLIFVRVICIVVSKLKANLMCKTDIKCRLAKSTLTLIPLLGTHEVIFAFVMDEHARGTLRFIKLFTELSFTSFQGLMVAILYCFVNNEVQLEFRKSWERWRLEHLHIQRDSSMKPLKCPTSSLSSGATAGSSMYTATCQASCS
- experimentalDetails: qHTS of GLP-1 Receptor Inverse Agonists (Inhibition Mode); further: nearly all actives have a fitted effect of over 55% in size
- assayConditions: HEK293 GLP-1R CRE-luciferase, luminescence, 24 h, GLP-1R form is constitutively active; series mostly up to 38.3 µM
In all, about 410,000 compounds went through this assay and about 6,400 (1.6%) were called active. Inconclusive results (about 20%) are left out. The call rests on the fitted dose curve; in most records, active means well fitted inhibition curve with a large enough effect; inconclusive means small, poorly fitted or top-dose-only effect; inactive means no such curve, though single readings can be large or run the other way. The list comes from a sample in which actives are over-represented; it also holds close analogues and randomly drawn compounds.
A correct response names exactly one class from active, inactive

These recorded examples may help you get a feel for the data.
CC1=C(C(=O)N(C)C)CC(CC(=O)NCCN2CCOCC2)C(=O)N1Cc1ccccc1 (centres undefined) :: inactive
CCN1C(=O)[C@H]2[C@@H](c3ccc(-c4ccc(OC)cc4)cc3)N[C@@](Cc3ccccc3)(C(=O)OC)[C@H]2C1=O :: inactive
CC1(C(=O)O)CCN1C(=O)/C=C/c1ccccc1 (centres undefined) :: inactive
CCC(C)Sc1nc2c(c(=O)[nH]c(=O)n2C)n1CC(O)COc1cccc2ccccc12 (centres undefined) :: inactive
COc1ccc([C@H]2N[C@]3(CCCN(Cc4ccco4)C3=O)[C@H]3C(=O)N(C)C(=O)[C@@H]23)cc1 :: inactive

Give the logged outcome of this assay for the following compound: `COc1ccc([C@H]2N[C@]3(CCCN(CC4CCCCC4)C3=O)[C@H]3C(=O)N(C)C(=O)[C@@H]23)cc1`
inactive

Give the logged outcome of this assay for the following compound: `COc1ccc(-c2c(C#N)cnc(C)c2C)c(O)c1OC`
inactive

Give the logged outcome of this assay for the following compound: `COc1ccc2c(c1)CCCO[C@]21O[C@H](CCO)C[C@H](O)[C@H]1O`
inactive

Give the logged outcome of this assay for the following compound: Cc1ccn(CC(=O)NC2CCCN(Cc3ccccc3F)C2)n1 (centres undefined)
inactive

---

- tgt: Glucagon-like peptide 1 receptor (Homo sapiens)
- experimentalDetails: qHTS of GLP-1 Receptor Inverse Agonists (Inhibition Mode); further: nearly all actives have a fitted effect of over 55% in size
- assayConditions: HEK293 GLP-1R CRE-luciferase, luminescence, 24 h, GLP-1R form is constitutively active; series mostly up to 38.3 µM
Out of some 410,000 compounds screened, about 6,400 (1.6%) were called active. Inconclusive results (about 20%) are left out. The call rests on the fitted dose curve; in most records, active means well fitted inhibition curve with a large enough effect; inconclusive means small, poorly fitted or top-dose-only effect; inactive means no such curve, though single readings can be large or run the other way. The list comes from a sample in which actives are over-represented; it also holds close analogues and randomly drawn compounds.
A correct response names exactly one class from active, inactive

These recorded examples may help you get a feel for the data.
CCOc1ccc(CCNC(=O)COC(=O)c2ccc(C)c(S(=O)(=O)N3CCOCC3)c2)cc1OCC :: inactive
CC(NC(=O)CCc1cn(Cc2ccccc2Cl)c2ccccc12)c1ccccc1 (stereo not given) :: inactive
COC(=O)N/N=C/c1c[n+]([O-])c2ccccc2[n+]1[O-] :: inactive

Give the logged outcome of this assay for the following compound: `COC(=O)N/N=C/c1cn(CCCOc2ccc(C)cc2)c2ccccc12`
active

Give the logged outcome of this assay for the following compound: `Cc1ccc(OCCOc2cccc(/C=N/NC(N)=O)c2)cc1`
inactive

---

- tgt: Glucagon-like peptide 1 receptor (Homo sapiens)
- experimentalDetails: qHTS of GLP-1 Receptor Inverse Agonists (Inhibition Mode); further: nearly all actives have a fitted effect of over 55% in size
- assayConditions: HEK293 GLP-1R CRE-luciferase, luminescence, 24 h, GLP-1R form is constitutively active; series mostly up to 38.3 µM
The campaign covered roughly 410,000 compounds. About 6,400 (1.6%) were called active. About 20% were inconclusive and are not listed. Calls come from the whole dose curve; as a rule, active = well fitted inhibition curve with a large enough effect; inconclusive = small, poorly fitted or top-dose-only effect; inactive = no such curve, though single readings can be large or run the other way. For the sample, actives were picked, then their nearest neighbours and some compounds at random.
A correct response names exactly one class from yes (1) for active, no (0) for inactive

These recorded examples may help you get a feel for the data.
COc1cc(CNC2CCCC2)c(Br)cc1OCc1ccccc1 :: yes (1)
CN1CCN(C2Cc3ccc(Cl)cc3Sc3ccc(F)cc32)CC1 (configuration not stated) :: yes (1)
COc1cc(C=O)c(Br)cc1OCC(=O)NCc1ccccc1 :: no (0)
CC1(C(=O)NS(=O)(=O)C2CC2)CCCN(C(=O)CSc2ccccc2)C1 (configuration not stated) :: no (0)
C/C(=N/NC(=S)Nc1ccccc1)c1ccc2c(c1)OCO2 :: yes (1)

Give the logged outcome of this assay for the following compound: `Cc1ccc(Cl)cc1NC(=O)COC(=O)CC(C)(C)C`
no (0)

Give the logged outcome of this assay for the following compound: `C/C(=N\NC(=O)C(N)=O)c1ccc2c(c1)OCCO2`
no (0)

Give the logged outcome of this assay for the following compound: `COc1ccc(CNC2CCCCC2)cc1`
no (0)

Give the logged outcome of this assay for the following compound: `CCOC(=O)C1(CCOc2ccccc2)CCN(Cc2ccc(C#CCCO)cc2)CC1`
yes (1)

Give the logged outcome of this assay for the following compound: `CCN(CC(=O)Nc1cc(Cl)ccc1C)C(=O)CSCc1ccccc1`
yes (1)

Give the logged outcome of this assay for the following compound: `CCCS(=O)(=O)N1CCC(CCOc2ccccc2)(C(=O)OCC)CC1`
no (0)

Give the logged outcome of this assay for the following compound: `COc1ccc(C(=O)OCC(=O)Nc2cc(C)on2)cc1F`
no (0)

---

- tgt: Glucagon-like peptide 1 receptor (Homo sapiens)
- experimentalDetails: qHTS of GLP-1 Receptor Inverse Agonists (Inhibition Mode); further: nearly all actives have a fitted effect of over 55% in size; further: potency means the concentration at half of the fitted maximal effect
- assayConditions: HEK293 GLP-1R CRE-luciferase, luminescence, 24 h, GLP-1R form is constitutively active; series mostly up to 38.3 µM
Among all 410,000 compounds or so, about 6,400 (1.6%) were called active. Not shown: some 20% with an inconclusive outcome. Many of the other results were omitted from the sample, so actives are more common in it than they were.
outcomeMeasure: Potency

Solved entries:
O=C(NC1CCCC1)C1CCN(C(=O)Nc2cccc(Cl)c2)CC1 :: inactive
Cc1ccccc1-c1ccc2c(c1)O[C@@H](CN(C)Cc1ccc(C(=O)O)cc1)[C@@H](C)CN([C@H](C)CO)S2(=O)=O :: inactive
O=NN(CCCl)C(=O)NCCc1cccc[n+]1[O-] :: inactive
CCOC(=O)c1c(NC(=O)COC(=O)c2ccc(S(=O)(=O)C(F)F)cc2)sc(C(=O)N(C)C)c1C :: inactive
N#C/C(=C(/O)COc1cccc2ccccc12)c1nc2ccccc2[nH]1 :: inactive

Provide Potency, tested on Glucagon-like peptide 1 receptor (Homo sapiens), for `CCN(CCN(C)C)C(=O)c1ccc2nc(C)c(N(C)C(=O)CCc3ccccc3)n2c1` .
inactive

---

- tgt: Glucagon-like peptide 1 receptor (Homo sapiens)
- experimentalDetails: qHTS of GLP-1 Receptor Inverse Agonists (Inhibition Mode); further: nearly all actives have a fitted effect of over 55% in size; further: potency means the concentration at half of the fitted maximal effect
- assayConditions: HEK293 GLP-1R CRE-luciferase, luminescence, 24 h, GLP-1R form is constitutively active; series mostly up to 38.3 µM
Out of some 410,000 compounds screened, about 6,400 (1.6%) were called active. About 20% were inconclusive and are not listed. Shown is part of a subset that was picked to be rich in actives.
outcomeMeasure: Potency

Solved entries:
C=CC(COCc1ccccc1)N(Cc1ccccc1)S(=O)(=O)c1ccccc1Br (stereo unspecified) :: 10 µM (active)
O=C(COc1ccc(Cl)cc1)N(Cc1ccco1)Cc1ccco1 :: 10 µM (active)
CCOC(=O)/C(=N\Nc1cc(Cl)ccc1Cl)N1CCN(C)CC1 :: 10 µM (active)
Cc1cc2oc(C(=O)N(Cc3ccc(Cl)cc3)Cc3ccco3)c(C)c2cc1Cl :: inactive
CCN([C@H](CO)C(C)C)S(=O)(=O)c1ccccc1Br :: inactive

Give me measured Potency, please, for this compound: `CCOC(=O)N1CCN(C(=O)COc2ccc(Cl)cc2C)CC1`
inactive

Give me measured Potency, please, for this compound: CC1=C(C)CC(C(=O)NNC(=O)c2ccccc2O)C(C(=O)O)C1 (stereo unspecified)
inactive

Give me measured Potency, please, for this compound: `CCOc1ccc(S(=O)(=O)N(CC(=O)NCC(F)(F)F)Cc2ccco2)cc1`
inactive

Give me measured Potency, please, for this compound: `O=C(CSc1ccc(Cl)cc1)NC1CC1`
inactive

Give me measured Potency, please, for this compound: `CN(C)CCNC(=O)c1ccc(Cl)c2cc3ccccc3nc12`
7.08 µM (active)

Give me measured Potency, please, for this compound: `Cc1cc(C(=O)NNC(=O)c2ccccc2O)c(C)o1`
inactive

---

- tgt: Glucagon-like peptide 1 receptor (Homo sapiens)
- experimentalDetails: qHTS of GLP-1 Receptor Inverse Agonists (Inhibition Mode); further: nearly all actives have a fitted effect of over 55% in size
- assayConditions: HEK293 GLP-1R CRE-luciferase, luminescence, 24 h, GLP-1R form is constitutively active; series mostly up to 38.3 µM
- Procedure: The overall goal of this project was to develop a novel assay for discovering small molecule ligands for class B1 G protein-coupled receptors (GPCRs). […] The assay was developed using a cell-based functional readout. […] Six ul of cell suspension (200 cells/uL in DMEM + 10% Nu serum + 1% pen-strep) is dispensed in a white solid 1536-well plate. […] A luminescence read is obtained on the PerkinElmer Viewlux after 12 min incubation at room temperature.
Hit rate of the full screen: of about 410,000 compounds, about 6,400 (1.6%) were called active. Not shown: some 20% with an inconclusive outcome. Calls follow the shape of the dose curve; as a rule, active = well fitted inhibition curve with a large enough effect; inconclusive = small, poorly fitted or top-dose-only effect; inactive = no such curve, though single readings can be large or run the other way. What follows is part of a selection rich in actives, with near analogues and random picks from the rest.
A correct response names exactly one class from Y for active, N for inactive

These recorded examples may help you get a feel for the data.
Cc1ccc(Nc2c3c(nc4ccccc24)CCC3)cc1 :: Y
Cc1nn(Cc2ccccc2)c(C)c1CNC(=O)c1ccc(F)c(S(=O)(=O)N2CCOCC2)c1 :: N
COc1cc2nnn(-c3ccncc3)c2cc1OC :: N
CCOc1ccc(NC(=O)CSc2c3c(nc4ccccc24)CCCC3)cc1 :: N
NS(=O)(=O)c1ccc(CCNC(=O)c2ccc(Cl)c(S(=O)(=O)N3CCCCCC3)c2)cc1 :: N

Give the logged outcome of this assay for the following compound: `Nc1ncnc2c1ncn2[C@@H]1O[C@H](CNC(=O)[C@H](N)Cc2cccnc2)[C@@H](O)[C@H]1O`
N

Give the logged outcome of this assay for the following compound: CSCCC(C(=O)NC(C)(C)C)n1c(-c2ccccc2)nc2ccccc21 (stereo not given)
N
